Experiment: qHTS assay to test for compound auto fluorescence at 590 nm (red) in HepG2 cells (AID 720674); note: % is set by controls: 0 for no effect and ±100 for the full control effect
Details: HepG2 autofluorescence, red 540/590 nm, 1 h; series mostly up to 91.3 µM
The source made the active and inactive calls. Calls come from the whole dose curve; as a rule, active = well fitted curve in the direction sought with a large enough effect in the repeat runs; inconclusive = weak or mixed curves; inactive = flat fitted curve, though single readings scatter.
PARAMETER MEASURED: fluorescence, relative to Rose Bengal

Example entries and their recorded answers appear below.
compound=Oc1ccccc1C=NCc1ccccc1 parameter_measured="fluorescence, relative to Rose Bengal" result=inactive
compound=CC(=O)Oc1cc(C(C)C)c(OCCN(C)C)cc1C parameter_measured="fluorescence, relative to Rose Bengal" result="0.0269% [at 18.6 µM] (inactive)"
compound=CC(C)c1ccccc1 parameter_measured="fluorescence, relative to Rose Bengal" result=inactive
compound=CCN(CCCc1ccccc1)CCCc1ccccc1 parameter_measured="fluorescence, relative to Rose Bengal" result="0.32% [at 18.6 µM] (inactive)"

Hey, can you go through the list below and give me fluorescence, relative to Rose Bengal for every item?
1. FC(F)(F)C(Cl)(Cl)Cl
2. O=S(=O)(O)C(F)(F)F
3. Nc1ccc2ccccc2c1S(=O)(=O)O
4. CC(=O)N[C@@H](CC(C)C)C(=O)O

Output line:
inactive
inactive
inactive
inactive
